Where these numbers come from: PubChem BioAssay

- Target system: Albumin (Bos taurus) (UniProt P02769)
- Sequence (P02769 whole entry, looked up): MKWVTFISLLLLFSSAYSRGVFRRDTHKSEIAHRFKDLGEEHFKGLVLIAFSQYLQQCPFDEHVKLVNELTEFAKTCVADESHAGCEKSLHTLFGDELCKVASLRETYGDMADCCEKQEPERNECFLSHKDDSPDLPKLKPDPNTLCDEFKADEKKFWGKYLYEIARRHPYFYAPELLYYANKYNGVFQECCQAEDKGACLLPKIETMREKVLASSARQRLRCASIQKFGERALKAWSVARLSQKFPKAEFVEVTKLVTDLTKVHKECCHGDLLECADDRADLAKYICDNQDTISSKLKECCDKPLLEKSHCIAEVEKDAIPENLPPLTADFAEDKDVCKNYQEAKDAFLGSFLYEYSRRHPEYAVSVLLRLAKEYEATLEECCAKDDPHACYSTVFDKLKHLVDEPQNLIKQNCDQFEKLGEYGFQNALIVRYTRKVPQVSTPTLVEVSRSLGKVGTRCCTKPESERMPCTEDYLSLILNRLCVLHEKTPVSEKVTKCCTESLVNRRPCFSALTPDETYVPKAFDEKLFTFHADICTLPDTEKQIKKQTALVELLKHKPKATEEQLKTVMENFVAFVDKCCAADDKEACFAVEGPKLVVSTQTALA
- Procedure details: bovine serum albumin binders on microarray, profiling panel, artefact control for SMM control protein annotation, biochemical, small-molecule microarray, Alexa647 label, 635/667 nm fluorescence (AID 1118);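 also: score merges 667 nm emission intensity and signal-to-noise per printed compound spot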
- Assay context: BSA-A647 binding, fluorescence 635 nm, higher = more signal
Tag: fulfilled if measured composite z-score is not below 0.7, not fulfilled if it is.

[
  {
    "Molecule": "O=C1C2C=CC(C(O)c3ccco3)N(Nc3ccccc3)C2C(=O)N1c1ccccc1 (stereo not drawn)",
    "Group": "not fulfilled"
  },
  {
    "Molecule": "CCCNC(=O)[C@@]1(Sc2ccc(C)cc2)CC(=O)N(C(C)C)[C@@H]1c1ccc(CO)cc1I",
    "Group": "not fulfilled"
  },
  {
    "Molecule": "O=C(N1CCOCC1)[C@@]1(CCS(=O)(=O)c2ccccc2)N=C(c2ccc(OCCCO)cc2)O[C@H]1c1ccccc1",
    "Group": "fulfilled"
  },
  {
    "Molecule": "CCCNC(=O)[C@@]1(C)c2ccccc2C(=O)N(Cc2ccccc2)[C@H]1c1ccc(CO)cc1",
    "Group": "not fulfilled"
  },
  {
    "Molecule": "CN1C(=O)C2C=CC(C(O)c3ccc(I)cc3)N(Nc3ccccc3)C2C1=O (stereo not drawn)",
    "Group": "fulfilled"
  },
  {
    "Molecule": "C[C@@]12COC[C@]13C=C(Br)[C@H](C2)[C@@]1(CO1)C3=O",
    "Group": "not fulfilled"
  },
  {
    "Molecule": "CN(C)C(=O)[C@@]1(Cc2ccccc2)COC(c2ccc(OCCCO)cc2)=N1",
    "Group": "not fulfilled"
  },
  {
    "Molecule": "COCCOC(=O)N1C(=O)[C@@]2(c3cc(C#CCNC(N)=O)ccc31)[C@H](c1ccc(O)cc1)N1[C@H](c3ccccc3)[C@H](c3ccccc3)OC(=O)[C@H]1[C@@H]2C(=O)N1CCN(c2ncccn2)CC1",
    "Group": "not fulfilled"
  },
  {
    "Molecule": "O=C1O[C@H](c2ccccc2)[C@H](c2ccccc2)N2[C@H]1[C@@H](C(=O)N1CCCCCCC1)[C@]1(C(=O)Nc3ccc(C#CC4(O)CCCCCC4)cc31)[C@H]2c1ccc(O)cc1",
    "Group": "not fulfilled"
  },
  {
    "Molecule": "[N-]=[N+]=NCc1ccccc1[C@H]1OC(c2ccc(OCCCO)cc2)=N[C@@]1(Cc1ccccc1)C(=O)NCCN1CCOCC1",
    "Group": "fulfilled"
  },
  {
    "Molecule": "O=C1C2C=CC(C(O)C=Cc3ccc([N+](=O)[O-])cc3)N(Nc3ccccc3)C2C(=O)N1c1ccccc1 (stereo not drawn)",
    "Group": "fulfilled"
  },
  {
    "Molecule": "COc1ccc(C#Cc2ccc3c(c2)[C@]2(C(=O)N3)[C@H](c3ccc(OCCO)cc3)N3[C@H](c4ccccc4)[C@H](c4ccccc4)OC(=O)[C@H]3[C@@H]2C(=O)N2CCc3cc(OC)c(OC)cc3C2)cc1",
    "Group": "not fulfilled"
  },
  {
    "Molecule": "CCCC=C(CCC)[C@@H](NS(=O)(=O)c1cccc2cccnc12)c1ccc(-c2ccccc2)cc1",
    "Group": "fulfilled"
  },
  {
    "Molecule": "CCCCC=C[C@@H](NC(=O)c1ccccc1)c1ccccc1",
    "Group": "fulfilled"
  },
  {
    "Molecule": "COc1ccc(C(O)C2C=CC3C(=O)N(c4ccccc4)C(=O)C3N2Nc2ccccc2F)cc1 (stereo not drawn)",
    "Group": "fulfilled"
  },
  {
    "Molecule": "O=C1C[C@@](C(=O)NCc2ccccc2)(c2ccc([N+](=O)[O-])cc2)[C@@H](c2ccc(CO)cc2I)N1CC12CC3CC(CC(C3)C1)C2",
    "Group": "not fulfilled"
  },
  {
    "Molecule": "COc1ccc([Si](C)(C)[C@H]2[C@H](CC(=O)N3Cc4ccccc4C[C@H]3CO)O[C@@]3(C(=O)N(Cc4ccc(N5C(=O)c6cccc7cccc5c67)cc4)c4ccccc43)[C@@H]2C)cc1",
    "Group": "not fulfilled"
  },
  {
    "Molecule": "CCOC(=O)C1=CCN(S(=O)(=O)c2ccc(C)cc2)C1c1ccccc1 (stereo not drawn)",
    "Group": "fulfilled"
  },
  {
    "Molecule": "COCCOC(=O)N1C(=O)[C@@]2(c3cc(C#CC4(O)CCCCCC4)ccc31)[C@H](C(=O)N1CCN(c3ncccn3)CC1)[C@H]1C(=O)O[C@H](c3ccccc3)[C@H](c3ccccc3)N1[C@@H]2c1ccccc1OCCO",
    "Group": "not fulfilled"
  },
  {
    "Molecule": "COc1cc(CO)cc(I)c1O[C@H]1C=C(C(=O)NCCO)C[C@@H](NCC2CCCCC2)[C@@H]1O",
    "Group": "not fulfilled"
  },
  {
    "Molecule": "CN(C)C(=O)[C@@]1(CCC(=O)OC(C)(C)C)N=C(c2ccc(OCCCO)cc2)O[C@H]1c1ccccc1CN=[N+]=[N-]",
    "Group": "fulfilled"
  },
  {
    "Molecule": "CCOC(=O)C[C@H]1[C@H](OC(=O)c2ccccc2-c2ccccc2)[C@@H](NC(=O)c2ccc3ccccc3n2)c2cc(OCCCO)ccc2N1C(=O)c1ccccc1",
    "Group": "not fulfilled"
  },
  {
    "Molecule": "O=C1[C@@H]2[C@@H](CC(COc3ccccc3)=C3[C@@H](CCc4ccccc4)OB(O)C[C@@H]32)C(=O)N1Cc1ccccc1",
    "Group": "not fulfilled"
  },
  {
    "Molecule": "O=C1O[C@H](c2ccccc2)[C@H](c2ccccc2)N2[C@H]1[C@@H](C(=O)Nc1nc3ccccc3s1)[C@]1(C(=O)Nc3ccc(C#CC4=CCCCC4)cc31)[C@H]2c1ccc(O)cc1",
    "Group": "not fulfilled"
  },
  {
    "Molecule": "CC(C)C[C@@H]1NC(=O)[C@@]23C(=O)N[C@@H](Cc4ccccc4)C2[C@H](C)[C@@]2(C)O[C@H]2C3/C=C/C/C=C\\CNC(=O)[C@@H](C)NC1=O (stereo partly drawn)",
    "Group": "not fulfilled"
  },
  {
    "Molecule": "COC(=O)[C@@]1(Cc2ccccc2)[C@H]2c3cc(C(=O)N4CCCC4)n(CCSCCO)c3C[C@H]2CN1C(=O)c1ccccc1",
    "Group": "fulfilled"
  },
  {
    "Molecule": "CN(C)C(=O)[C@@]1(Cc2ccccc2N=[N+]=[N-])N=C(c2ccc(OCCCO)cc2)O[C@H]1c1ccccc1",
    "Group": "fulfilled"
  },
  {
    "Molecule": "CC(C)C[C@@H]1NC(=O)[C@@H]2C[C@H](C(=O)NCCCCCC[N+](C)(C)C)[C@H](c3cccc(OCCO)c3)N2C1=O",
    "Group": "not fulfilled"
  }
]
